- Assay system: T1, PHD1_(KDM5B) Y310A mutant (UniProt Q9UGL1 306-360, Y310A)
- T1 construct: also called PHD1 Y310A; source: recombinant from modified pGEX-6p-1, site-directed mutagenesis; not shown: GST, N-terminal, cleaved
- T1 sequence (looked up): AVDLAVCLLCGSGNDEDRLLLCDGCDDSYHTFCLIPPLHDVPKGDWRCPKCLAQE
- Run description: ITC; ITC-200, 20 mmol/L Tris, 150 mmol/L NaCl, 1% Triton X-100, pH 7.5, 25°C
- Conditions: both partners purified
Reported property: pKd
Give bare numbers, as −log10 of the molar value.

stdin: Bench note: what pKd did ARTKQTARKS (histone H3 N-terminal tail, residues 1-10; also called H3K4me0; H3K4me0 peptide; source: synthetic peptide, bought: GL Biochem Ltd. (Shanghai, China)) [unmodified H3K4 peptide (residues 1-10)] show?
stdout: 4.55
